- Test system: SNU398
- assayExplanation: Cell growth inhibition assay, hepatocellular carcinoma cell line (Cell Titer Glo)
- Format: cell-based
- conditions: Homo sapiens, SNU-398, 72 h, SNU398, HGF + (2 ng/ml), 3 days; read-out: Single agent IC50, Compound B
readoutLabel: IC50 (nM)
Please state the figure in nM; there is no need to write the unit.

What measured IC50 goes with COc1ncc(-c2ccc3nccc(-c4ccnnc4)c3c2)cc1NS(=O)(=O)c1ccc(F)cc1F ? 83

###

- Test system: HCC1500
- assayExplanation: Cell growth inhibition assay, breast tumor cell line (Cell Titer Glo)
- Type: cell-based
- conditions: Homo sapiens, 72 h; HCC1500 (HER2−), 3 days; read-out: Single agent IC50, Compound A
pIC50: −log10 of the molar value.
readoutLabel: pIC50

Form entry - test system: HCC1500; read-out: pIC50; compound: CC(=O)Nc1cccc(-n2c(=O)n(C3CC3)c(=O)c3c(Nc4ccc(I)cc4F)n(C)c(=O)c(C)c32)c1 < 6.00

###

- System: BT474-J4
- assayExplanation: Cell growth inhibition assay, breast tumor cell line (Cell Titer Glo)
- Type: cell-based
- conditions: Homo sapiens, 72 h; BT474-J4 (HER2+), 3 days; read-out: Single agent IC50, Compound B
readoutLabel: pIC50
Please report pIC50 as the negative decimal logarithm of the molar concentration, giving only the number.

pIC50 for COc1ncc(-c2ccc3nccc(-c4ccnnc4)c3c2)cc1NS(=O)(=O)c1ccc(F)cc1F [Compound B] ? 7.85

###

- Tested on: HepG2
- assayExplanation: Cell growth inhibition assay, hepatocellular carcinoma cell line (Cell Titer Glo)
- Assay type: cell-based
- conditions: Homo sapiens, HepG2, 72 h, HepG2, HGF −, 3 days; read-out: Single agent IC50, Compound A
readoutLabel: pIC50
Remember the convention: pIC50 equals -log10 of concentration in molar.

Item CC(=O)Nc1cccc(-n2c(=O)n(C3CC3)c(=O)c3c(Nc4ccc(I)cc4F)n(C)c(=O)c(C)c32)c1 has what recorded pIC50? 9.00

###

- Tested on: HepG2
- assayExplanation: Cell growth inhibition assay, hepatocellular carcinoma cell line (Cell Titer Glo)
- Assay type: cell-based
- conditions: Homo sapiens, HepG2, 72 h, HepG2, HGF + (2 ng/ml), 3 days; read-out: Single agent IC50, Compound A
readoutLabel: IC50 (nM)
# unit: nM | format: bare number

So what IC50 did CC(=O)Nc1cccc(-n2c(=O)n(C3CC3)c(=O)c3c(Nc4ccc(I)cc4F)n(C)c(=O)c(C)c32)c1 get with HepG2? 3

###

- Test system: HCC1569
- assayExplanation: Cell growth inhibition assay, breast tumor cell line (Cell Titer Glo)
- Format: cell-based
- conditions: Homo sapiens, 72 h; HCC1569 (HER2−), 3 days; read-out: Single agent IC50, Compound A
readoutLabel: IC50

Look up IC50 for this compound: CC(=O)Nc1cccc(-n2c(=O)n(C3CC3)c(=O)c3c(Nc4ccc(I)cc4F)n(C)c(=O)c(C)c32)c1 > 1000 nM

###

- Test system: SK-BR-3
- assayExplanation: Cell growth inhibition assay, breast tumor cell line (Cell Titer Glo)
- Assay type: cell-based
- conditions: Homo sapiens, 72 h; SK-BR-3 (HER2+), 3 days; read-out: Single agent IC50, Compound B
readoutLabel: pIC50
Convention used: pIC50 is expressed as -log10 of the molar concentration.

Missing value: pIC50, SK-BR-3, entry COc1ncc(-c2ccc3nccc(-c4ccnnc4)c3c2)cc1NS(=O)(=O)c1ccc(F)cc1F [Compound B] . Fill in? 7.62

###

- Test system: C3A
- assayExplanation: Cell growth inhibition assay, hepatocellular carcinoma cell line (Cell Titer Glo)
- Format: cell-based
- conditions: Homo sapiens, 72 h, HGF + (2 ng/ml), 3 days, read-out: Single agent IC50, Compound B
- Description: Human tumor cell lines from hepatocellular carcinoma (HCC), C3A, Hep3B, HepG2, PLC/PRF/5, SNU182, SNU387, SNU398, SNU423, SNU449 and SNU475 were purchased from the ATCC. […] Cells were seeded in a 96-well tissue culture plate (NUNC 136102) of RPMI medium containing 10% FBS at 500-2,000 cells per well. […] ATP levels were determined by adding Cell Titer Glo® (Promega) according to the manufacturer's protocol. […]
readoutLabel: IC50 (nM)
Numbers only; they are read as nM.

State the recorded IC50 for this entry: COc1ncc(-c2ccc3nccc(-c4ccnnc4)c3c2)cc1NS(=O)(=O)c1ccc(F)cc1F 13

###

- Tested on: C3A
- assayExplanation: Cell growth inhibition assay, hepatocellular carcinoma cell line (Cell Titer Glo)
- Type: cell-based
- conditions: Homo sapiens, 72 h, HGF −, 3 days, read-out: Single agent IC50, Compound B
readoutLabel: IC50 (nM)
Number only, in nM; omit the unit.

Entry COc1ncc(-c2ccc3nccc(-c4ccnnc4)c3c2)cc1NS(=O)(=O)c1ccc(F)cc1F has what IC50? 13

###

- System: Human breast tumor cell lines
- assayExplanation: Cell growth inhibition, panel of breast tumor cell lines
- Type: cell-based
- conditions: SUM52 and MDA-MB-17511
- Procedure: Human tumor cell lines from hepatocellular carcinoma (HCC), C3A, Hep3B, HepG2, PLC/PRF/5, SNU182, SNU387, SNU398, SNU423, SNU449 and SNU475 were purchased from the ATCC. […] Cells were seeded in a 96-well tissue culture plate (NUNC 136102) of RPMI medium containing 10% FBS at 500-2,000 cells per well. […] ATP levels were determined by adding Cell Titer Glo® (Promega) according to the manufacturer's protocol. […]
readoutLabel: IC50

Query the reported IC50 for Human breast tumor cell lines; item: CC(=O)Nc1cccc(-n2c(=O)n(C3CC3)c(=O)c3c(Nc4ccc(I)cc4F)n(C)c(=O)c(C)c32)c1 ≤ 0.099 µM

###

- Test system: BT483
- assayExplanation: Cell growth inhibition assay, breast tumor cell line (Cell Titer Glo)
- Type: cell-based
- conditions: Homo sapiens, BT-483, 72 h; BT483 (HER2−), 3 days; read-out: Single agent IC50, Compound A
pIC50: −log10 of the molar value.
readoutLabel: pIC50

Which value of pIC50 has been reported for CC(=O)Nc1cccc(-n2c(=O)n(C3CC3)c(=O)c3c(Nc4ccc(I)cc4F)n(C)c(=O)c(C)c32)c1 [Compound A] in the records? < 6.00

###

- System: HCC1937
- assayExplanation: Cell growth inhibition assay, breast tumor cell line (Cell Titer Glo)
- Type: cell-based
- conditions: Homo sapiens, 72 h; HCC1937 (HER2−), 3 days; read-out: Single agent IC50, Compound B
readoutLabel: IC50 (µM)
State the answer as a number, implicitly in µM.

Which IC50 is reported for this molecule? COc1ncc(-c2ccc3nccc(-c4ccnnc4)c3c2)cc1NS(=O)(=O)c1ccc(F)cc1F [Compound B] 0.114

###

- Test system: hepatocellular carcinoma (HCC) cell lines
- assayExplanation: Cell growth inhibition, panel of 10 HCC cell lines
- Assay type: cell-based, human
- conditions: Homo sapiens, mesenchymal-like HCC cell lines SNU387 and SNU423
readoutLabel: IC50

Entry under review: CC(=O)Nc1cccc(-n2c(=O)n(C3CC3)c(=O)c3c(Nc4ccc(I)cc4F)n(C)c(=O)c(C)c32)c1 . Reported IC50? 74 to 577 nM

###

- Tested on: Hep3B
- assayExplanation: Cell growth inhibition assay, hepatocellular carcinoma cell line (Cell Titer Glo)
- Format: cell-based
- conditions: Homo sapiens, 72 h, HGF −, 3 days, read-out: Single agent IC50, Compound B
readoutLabel: pIC50
FYI, pIC50 means -log10 of a concentration in mol per litre.

# value lookup — system Hep3B, readout pIC50, item COc1ncc(-c2ccc3nccc(-c4ccnnc4)c3c2)cc1NS(=O)(=O)c1ccc(F)cc1F 7.55

###

- Tested on: BT474-J4
- assayExplanation: Cell growth inhibition assay, breast tumor cell line (Cell Titer Glo)
- Format: cell-based
- conditions: Homo sapiens, 72 h; BT474-J4 (HER2+), 3 days; read-out: Single agent IC50, Compound A
- Protocol: Human tumor cell lines from hepatocellular carcinoma (HCC), C3A, Hep3B, HepG2, PLC/PRF/5, SNU182, SNU387, SNU398, SNU423, SNU449 and SNU475 were purchased from the ATCC. […] Cells were seeded in a 96-well tissue culture plate (NUNC 136102) of RPMI medium containing 10% FBS at 500-2,000 cells per well. […] ATP levels were determined by adding Cell Titer Glo® (Promega) according to the manufacturer's protocol. […]
readoutLabel: IC50

Endpoint output: IC50 of CC(=O)Nc1cccc(-n2c(=O)n(C3CC3)c(=O)c3c(Nc4ccc(I)cc4F)n(C)c(=O)c(C)c32)c1 . Value? > 1 µM

###

- Test system: SNU475
- assayExplanation: Cell growth inhibition assay, hepatocellular carcinoma cell line (Cell Titer Glo)
- Format: cell-based
- conditions: Homo sapiens, SNU-475, 72 h, SNU475, HGF + (2 ng/ml), 3 days; read-out: Single agent IC50, Compound B
readoutLabel: pIC50
As a rule, pIC50 stands for the negative log10 of the concentration, concentration in M.

Which pIC50 value belongs to COc1ncc(-c2ccc3nccc(-c4ccnnc4)c3c2)cc1NS(=O)(=O)c1ccc(F)cc1F ? 7.41

Hello, the source for this data is patent US20120245180A1, in case you need it.
